Each record here notes measured emission maximum.
# PROTOCOL TEXT: solvent given as SMILES
# MEASUREMENT CONTEXT: in CCCCCCO

COMPOUND	emission maximum / nm
CN(C)c1ccc(C#Cc2ccc3ccc4c(C#Cc5ccc(N(C)C)cc5)ccc5ccc2c3c54)cc1	528.2
O=C(O)COc1ccc2[nH]c3c(c2c1)CCCC3=O	469.04
N#Cc1ccc(C#Cc2ccc3ccc4ccc(C#Cc5ccc(C#N)cc5)c5ccc2c3c45)cc1	448
COC(=O)C(Cc1ccc2oc(-c3ccc(-n4c5ccccc5c5ccccc54)cc3)nc2c1)NC(=O)OC(C)(C)C (stereo unspecified)	424
Nc1ccc2c(C(F)(F)F)cc(=O)oc2c1	481
Oc1ccccc1/N=C/c1ccccc1Oc1ccccc1	410

====

# PROTOCOL TEXT: solvent given as SMILES
# MEASUREMENT CONTEXT: in ClCCl
RESULT TYPE: emission maximum (nm)

MOLECULE	RESULT TYPE	VALUE OBSERVED
c1ccc2c(-n3c(-c4ccc(-c5ccc(-c6nc7c8ccccc8c8ccccc8c7n6-c6cccc7ccccc67)c6ccccc56)c5ccccc45)nc4c5ccccc5c5ccccc5c43)cccc2c1	emission maximum	428
CCCCCCCCCCCCn1nnc(-c2ccc(C#Cc3ccc(C#Cc4ccc(-c5nnn(CCCCCCCCCCCC)n5)cc4)c4nc5c6ccccc6c6ccccc6c5nc34)cc2)n1	emission maximum	502
c1ccc(N2N=C(c3cccc4ccccc34)CC2c2ccc3ccc4cccc5ccc2c3c45)cc1 (stereo unspecified)	emission maximum	455
Cc1cc(=O)cc(-c2ccc(-c3nc4ccccn4c3NC3CCCCC3)cc2)o1	emission maximum	500
COc1cc(OC)cc(C2=C3C(C)=C(I)C(C)=[N+]3[B-](F)(F)n3c(/C=C/c4c[nH]c5ccccc45)c(I)c(C)c32)c1	emission maximum	661
CCN(CC)c1ccc(OC)c(C=O)c1	emission maximum	538
CCCCN1C(=O)C2=C(c3ccc(Br)cc3)[N-]C(=O)C2=C1c1ccc(Br)cc1	emission maximum	613
c1csc(-c2ccc(-c3ccc(-c4cccs4)s3)s2)c1	emission maximum	480
CCCCCCOC(=O)/C=C/C1=CC2=C(c3c(C)cc(C)cc3C)c3cc(/C=C/C(=O)OCCCCCC)cn3[B-](F)(F)[N+]2=C1	emission maximum	606
Cc1cc(C)c(C2=C3C=C(/C=C/C(=O)OC(C)(C)C)C=[N+]3[B-](F)(F)n3cc(/C=C/C(=O)OC(C)(C)C)cc32)c(C)c1	emission maximum	610
CC1(C)CC(/C=C/c2ccc(-n3ccnc3)cc2)=CC(=C(C#N)C#N)C1	emission maximum	504
Cc1ccc(/N=C2\N=C(N)c3cccc4cccc2c34)cc1	emission maximum	498
C(#Cc1c(C#Cc2cccs2)c(C#Cc2cccs2)c(C#Cc2cccs2)c(C#Cc2cccs2)c1C#Cc1cccs1)c1cccs1	emission maximum	453
N#Cc1cc(-c2ccc(/C=C/c3ccc(N(c4ccccc4)c4ccccc4)cc3)c(C#N)c2)ccc1/C=C/c1ccc(N(c2ccccc2)c2ccccc2)cc1	emission maximum	541
COC(=O)CCC1=CC(C#Cc2ccc(OC)cc2)=[N+]2C1=Cc1c(CCC(=O)OC)cc(C#Cc3ccc(OC)cc3)n1[B-]2(F)F	emission maximum	682
O=[N+]([O-])c1ccc(O)c(-c2nc3c(c4c2-c2ccccc2CC4)-c2ccccc2CC3)c1	emission maximum	541

====

# PROTOCOL TEXT: solvent given as SMILES
# MEASUREMENT CONTEXT: in O

MOLECULE	emission maximum
COc1ccc(OC)c(C2=C3C=CC(=[N+](C)C)C=C3[Si](C)(C)c3cc(N(C)C)ccc32)c1	665 nm
CN1/C(=C/C=C(/C=C/C2=[N+](C)c3ccccc3C2(C)C)c2ccc(F)cc2)C(C)(C)c2ccccc21	662 nm
CC/[NH+]=c1\cc2oc3cc(NCCC(=O)NC(CCC(=O)OC)C(=O)OC)c4ccccc4c3nc-2cc1C (stereo not drawn)	652 nm
O=c1c(Nc2ccccc2)c([O-])c1=[NH+]c1ccccc1	504 nm
CC[n+]1c(-c2ccccc2)c2cc(N)ccc2c2ccc(-n3cccc3)cc21	592 nm
CCN1CCCc2cc3c(cc21)Oc1cc2c(cc1=N3)C(CS(=O)(=O)[O-])CC(C)(C)[N+]=2CCCC(=O)[O-] (stereo not drawn)	690 nm
CC1(C)C(/C=C/C=C/C=C/C=C2/N(CS(=O)(=O)[O-])c3ccc(S(=O)(=O)[O-])cc3C2(C)C)=[N+](CS(=O)(=O)[O-])c2ccc(S(=O)(=O)[O-])cc21	771 nm
COc1ccc(-c2ccc(-c3ccc(C#N)s3)s2)cc1	529 nm

====

# PROTOCOL TEXT: solvent given as SMILES
# MEASUREMENT CONTEXT: in Cc1ccccc1
Assign labels as follows, please: True for emission maximum below 400 nm; False for emission maximum equal to or exceeding 400 nm.

MOLECULE	ASSIGNED LABEL
N#Cc1ccc(-n2c3ccccc3c3c2c2ccccc2n3-c2ccccc2)cc1	False
CCCCN1C(=O)c2cccc3c(N(C)C)ccc(c23)C1=O	False
C1=[N+](c2ccccc2)[B-]2(Oc3c1ccc1c4c(ccc31)C=[N+](c1ccccc1)[B-]1(O4)c3ccccc3Oc3ccccc31)c1ccccc1Oc1ccccc12	False
N#CC(C#N)=C(c1ccc(-n2ccc3ccccc32)cc1)c1ccc(-n2ccc3ccccc32)cc1	False
COc1ccc(N(c2ccccc2)c2ccc(OC)cc2)cc1	True
CC(=O)Nc1ccccc1C(=O)OC1CC(C)CCC1C(C)C (centres undefined)	True
CC1(C)c2ccccc2N(c2ccc(-c3nc([C@]45CC6CC(C[C@@H](C6)C4)C5)nc([C@]45C[C@H]6C[C@@H](C[C@H](C6)C4)C5)n3)cc2)c2ccccc21	False
O=c1oc2ccccc2cc1-c1ccc(-c2cc3ccccc3oc2=O)cc1	False

====

# PROTOCOL TEXT: solvent given as SMILES
# MEASUREMENT CONTEXT: in C1COCCO1
Each record here notes measured emission maximum.
RESULT TYPE: emission maximum (nm)

COMPOUND	UNITS TEXT	VALUE OBSERVED
CCOC(=O)C1=C(C)NC2=C(C(=O)c3ccccc32)C1c1ccc(N(C)C)cc1 (centres undefined)	nm	490
CCCCN(CCCC)c1ccc(/C=C/c2ccc3nc(/C=C/c4ccc(N(C)C)cc4)c(=O)n(CCC)c3c2)cc1	nm	559
CC1=NN(c2ccccc2)C(=O)/C1=C/c1cn(-c2ccccc2)nc1-c1ccccc1	nm	407
O=P1(c2ccccc2)C(c2cc(C(F)(F)F)cc(C(F)(F)F)c2)=Cc2c3ccc4cccc5ccc(c6cc(-c7ccccc7)n1c26)c3c45 (centres undefined)	nm	514
Nc1ccc2c(c1)C(=O)NC2=O	nm	435
CC(C)CN1C(=O)/C(=C/c2ccc([N+](=O)[O-])cc2)C=C1c1ccccc1	nm	601
N#C/C=C/c1ccc2ccc3cccc4ccc1c2c34	nm	421.5
CCCCN(CCCC)c1ccc(/C=C/c2ccc3nc(-c4ccccc4)c(/C=C/c4ccc(N(C)C)cc4)nc3c2)cc1	nm	540
COc1ccc(C2=C/C(=C\c3ccc([N+](=O)[O-])cc3)C(=O)N2CC(C)C)cc1	nm	616
CC(=O)Nc1ccc2c3cccc4cccc(c5cccc1c52)c43	nm	471
c1ccc(-c2ccc(-c3ccc(-c4cc(-c5ccc(-c6ccc(-c7ccccc7)cc6)cc5)cc(-c5ccc(-c6ccc(-c7ccccc7)cc6)cc5)c4)cc3)cc2)cc1	nm	375
NS(=O)(=O)c1ccc(N2N=C(c3ccc(O)cc3)CC2c2ccc([N+](=O)[O-])cc2)cc1 (centres undefined)	nm	417
N#Cc1ccc2cc[nH]c2c1	nm	342
O=C1/C(=C2\Sc3ccccc3C2=O)Sc2ccccc21	nm	590
Cc1ccc(C2=C3C=CC(/C=C/c4ccccc4)=[N+]3[B-](F)(F)n3c(/C=C/c4ccccc4)ccc32)cc1	nm	646
COC(=O)C(Cc1ccc2oc(-c3ccc(N(c4ccccc4)c4ccccc4)cc3)nc2c1)NC(=O)OC(C)(C)C (centres undefined)	nm	436.75
O=C(O)COc1ccc2[nH]c3c(c2c1)CCCC3=O	nm	404.04
COC(=O)C(Cc1ccc2oc(-c3ccc(-n4c5ccccc5c5ccccc54)cc3)nc2c1)NC(=O)OC(C)(C)C (centres undefined)	nm	400
Cc1nn(-c2ccccc2)c(C2=NN(c3ccc(Br)cc3)[C@@H](c3ccccc3)[C@@H]2c2ccccc2)c1C#N	nm	481

====

# PROTOCOL TEXT: solvent given as SMILES
# MEASUREMENT CONTEXT: in ClCCl

SMILES TEXT	UNITS TEXT	emission maximum
N#Cc1ccc(-n2c(-c3ccc(-c4ccc(N(c5ccccc5)c5ccccc5)cc4)s3)nc3c4ccccc4c4ccccc4c32)c2ccccc12	nm	408
O=c1c2cc(F)ccc2nc2n1[B-](F)(F)[n+]1ccccc1-2	nm	438
N#C/C(=C\c1ccc(/C=C/c2ccc(N(c3ccccc3)c3ccccc3)cc2)s1)C(=O)O	nm	676
COc1ccc(C2=[N+]3C(=Nc4c(-c5ccccc5)cc(-c5ccc(OC)cc5)n4[B-]3(F)F)C(c3ccccc3)=C2)cc1	nm	715
